Documented GI50 across a set of compounds
Tested on: MALME-3M melanoma
Experiment: NCI tumour cell line growth inhibition, 48 h

Below, 4 compounds whose answers are already recorded.
>>> result("O=C1NC(=S)S/C1=C(/C=C(\\CC(=O)c1ccccc1)c1ccc(Cl)cc1)c1ccccc1")
"39.9 µM"
>>> result("NC(=O)c1cc2c3ccccc3ccn2c1-c1ccccc1")
"16.7 µM"
>>> result("COc1ccc(C2=NN(C=O)C(c3cccc(Nc4ccnc5cc(Cl)ccc45)c3)C2)cc1 (stereo not given)")
"2.04 µM"
>>> result("CCOc1cccc(/C=N/NC(=O)C(=O)Nc2cccc(C(F)(F)F)c2)c1O")
"4.35 µM"

Next compound, GI50 to be filled in.
Look at this compound and give its reported GI50. COC(=O)C1CCc2sc3ncnc(Nc4cn[nH]c4C(=O)Nc4ccc(CN5CCN(C)CC5)cc4)c3c21 (stereo not given)
1.98 µM
